# System: Stenotrophomonas maltophilia MDR 7785
# run description: Rescue concentration, modified checkerboard MIC adjuvant assay
# Type: cell-based
# particulars: S. maltophilia MDR 7785; Tri at susceptible breakpoint 2 μg mL^−1
assay metric: Rescue concentration, Tri (2)

// worked examples, Rescue concentration, Tri (2) included
> print(dat)
                              line.notation  value.reported
1  Oc1ccc(C(c2c[nH]c3ncccc23)c2c[nH]c3ncccc23)cc1      >128 µg/mL
2  Oc1ccc(C(c2c[nH]c3cnccc23)c2c[nH]c3cnccc23)cc1      >128 µg/mL
3  Brc1ccc(C(c2c[nH]c3cnccc23)c2c[nH]c3cnccc23)cc1        64 µg/mL

Give the reported Rescue concentration, Tri (2) for Brc1ccc(C(c2c[nH]c3ncccc23)c2c[nH]c3ncccc23)cc1 (system: Stenotrophomonas maltophilia MDR 7785).
>128 µg/mL
